assay: photoluminescence quantum yield (fraction); solvent given as SMILES; conditions: in ClCCl
assay-metric: photoluminescence quantum yield

[[record]]
compound = "[O-][n+]1c(-c2ccccc2)cc(N2CCOCC2)nc1/C=C/c1ccccc1"
assay_metric = "photoluminescence quantum yield"
measured_value = 0.2

[[record]]
compound = "CCC1=C(C)C2=Cc3c4ccccc4c4n3[B-](c3ccncc3)(Oc3ccccc3-4)[N+]2=C1C=Cc1ccc(OC)cc1 (configuration not stated)"
assay_metric = "photoluminescence quantum yield"
measured_value = 0.35

[[record]]
compound = "CCOC(=O)C1=C(C(=O)OCC)C2(c3ccccc3-c3ccccc32)[C@@H](c2ccc([N+](=O)[O-])cc2)C=C2c3cc(OC)c(OC)cc3CCN21"
assay_metric = "photoluminescence quantum yield"
measured_value = 0.00075

[[record]]
compound = "CCCCN(CCCC)c1ccc(C#Cc2cc(C#Cc3ccc(C(F)(F)F)cc3)c(C#Cc3ccc(N(CCCC)CCCC)cc3)cc2C#Cc2ccc(C(F)(F)F)cc2)cc1"
assay_metric = "photoluminescence quantum yield"
measured_value = 0.5

[[record]]
compound = "COCCOCCOCCOCC(COCCOCCOCCOC)Oc1cc(/C=C/c2ccc(/C=C(\\C#N)C(=O)c3ccccc3)cc2)c(OC(COCCOCCOCCOC)COCCOCCOCCOC)cc1/C=C/c1ccc(/C=C(\\C#N)C(=O)c2ccccc2)cc1"
assay_metric = "photoluminescence quantum yield"
measured_value = 0.23

[[record]]
compound = "CCN(CC)c1ccc2c(c1)oc(=O)c1cc3c(-c4ccccc4)nn(C)c3nc12"
assay_metric = "photoluminescence quantum yield"
measured_value = 0.292

[[record]]
compound = "CNC(=O)[C@H](C)NC(=O)c1cccc2c1C#Cc1c(NC(=O)[C@@H](NC(C)=O)C(C)C)cccc1OCCCO2"
assay_metric = "photoluminescence quantum yield"
measured_value = 0.03

[[record]]
compound = "F[B-]1(F)n2c(Cl)ccc2C(c2c(Cl)cccc2Cl)=C2C=CC(NCc3ccccc3)=[N+]21"
assay_metric = "photoluminescence quantum yield"
measured_value = 0.8

[[record]]
compound = "N#CC(C#N)=Cc1ccc(-c2cccc(-c3nc4ccccc4s3)c2O)s1"
assay_metric = "photoluminescence quantum yield"
measured_value = 0.152

[[record]]
compound = "COc1ccc(-c2cnc(C#Cc3ccccc3)o2)cc1OC"
assay_metric = "photoluminescence quantum yield"
measured_value = 0.49

[[record]]
compound = "CCCCC(CC)Cn1c2cc(C#N)ccc2c2ccc(C#Cc3ccc4ccc5c(C#Cc6ccc7c8ccc(C#N)cc8n(CC(CC)CCCC)c7c6)cc(C#Cc6ccc7c8ccc(C#N)cc8n(CC(CC)CCCC)c7c6)c6ccc3c4c56)cc21 (configuration not stated)"
assay_metric = "photoluminescence quantum yield"
measured_value = 0.64

[[record]]
compound = "O=P1(c2ccccc2)C(c2ccccc2)=Cc2cc3ccccc3cc21 (configuration not stated)"
assay_metric = "photoluminescence quantum yield"
measured_value = 0.37

[[record]]
compound = "Cc1cc2sccc2c2[nH]c3ccccc3c12"
assay_metric = "photoluminescence quantum yield"
measured_value = 0.053

[[record]]
compound = "c1ccc(-c2nc(-c3ccccc3)n3ccccc23)cc1"
assay_metric = "photoluminescence quantum yield"
measured_value = 0.217

[[record]]
compound = "CCOC(=O)COc1ccc(/C=C/c2c(CC)c(C)c3n2[B-](F)(F)[N+]2=C(c4[nH]c(C)c(CC)c4C)c4ccccc4C2=C3C)cc1"
assay_metric = "photoluminescence quantum yield"
measured_value = 0.68

[[record]]
compound = "CN(C)c1ccc(C#Cc2ccc3c(N(C)C)cc(-c4ccccc4)cc3c2)cc1"
assay_metric = "photoluminescence quantum yield"
measured_value = 0.76

[[record]]
compound = "CCCCNC(=O)c1nc2c(N(C)C)nc(N(C)C)nc2n1Cc1ccccc1"
assay_metric = "photoluminescence quantum yield"
measured_value = 0.87

[[record]]
compound = "N#Cc1cc(/C=C/c2ccc(N(c3ccccc3)c3ccccc3)cc2)ccc1/C=C/c1ccc(/C=C/c2ccc(N(c3ccccc3)c3ccccc3)cc2)cc1C#N"
assay_metric = "photoluminescence quantum yield"
measured_value = 0.41

[[record]]
compound = "CCCCn1c(-c2ccc(-c3nnc(-c4ccc(-c5nc6c7ccccc7c7ccccc7c6n5CCCC)cc4)o3)cc2)nc2c3ccccc3c3ccccc3c21"
assay_metric = "photoluminescence quantum yield"
measured_value = 0.78

[[record]]
compound = "O=S1(=O)C2=C(c3ccccc31)C1(C3=C(c4ccccc41)S(=O)(=O)c1ccccc13)c1ccccc12"
assay_metric = "photoluminescence quantum yield"
measured_value = 0.76

[[record]]
compound = "Cc1cc(C)c(C2=C3C=C(/C=C/C(=O)OCc4ccccc4)C=[N+]3[B-](F)(F)n3cc(/C=C/C(=O)OCc4ccccc4)cc32)c(C)c1"
assay_metric = "photoluminescence quantum yield"
measured_value = 0.35

[[record]]
compound = "Cc1c(C)c2c3ccccc3[nH]c2c2ccccc12"
assay_metric = "photoluminescence quantum yield"
measured_value = 0.156

[[record]]
compound = "CC(C)[Si](C#Cc1c2nc3ccccc3nc2c(C#C[Si](C(C)C)(C(C)C)C(C)C)c2nc3c4ccccc4c(=O)c4ccccc4c3nc12)(C(C)C)C(C)C"
assay_metric = "photoluminescence quantum yield"
measured_value = 0.5

[[record]]
compound = "C(=C\\c1ccncn1)/c1ccc(-c2ccco2)cc1"
assay_metric = "photoluminescence quantum yield"
measured_value = 0.01

[[record]]
compound = "O=[N+]([O-])c1ccc(C#Cc2ccc3ccc(C#Cc4ccc([N+](=O)[O-])cc4)cc3c2)cc1"
assay_metric = "photoluminescence quantum yield"
measured_value = 0.007

[[record]]
compound = "O=c1c2cc(C#Cc3ccccc3)ccc2nc2ccc(C#Cc3ccccc3)cn12"
assay_metric = "photoluminescence quantum yield"
measured_value = 0.41

[[record]]
compound = "CCCN1/C(=C\\c2c(-c3ccc(N(C)C)cc3)c(=O)c2=O)C=Cc2ccccc21"
assay_metric = "photoluminescence quantum yield"
measured_value = 0.001

[[record]]
compound = "Cc1cccc(-c2c3ccccc3c(-c3cccc(C)n3)c3ccccc23)n1"
assay_metric = "photoluminescence quantum yield"
measured_value = 0.77

[[record]]
compound = "Cc1ccc(/C(C#N)=C/c2cc(/C=C(\\C#N)c3ccc(C)cc3)c(-c3ccc(N(c4ccccc4)c4ccccc4)cc3)cc2-c2ccc(N(c3ccccc3)c3ccccc3)cc2)cc1"
assay_metric = "photoluminescence quantum yield"
measured_value = 0.028

[[record]]
compound = "CCOC(=O)CC[N+]1=c2cc3c(cc2CCC1)=Cc1c(c2ccc(N(C)C)cc2oc1=O)O3"
assay_metric = "photoluminescence quantum yield"
measured_value = 0.469

[[record]]
compound = "N#Cc1cc2nc3c(nc2cc1C#N)C1c2ccc(N(c4ccccc4)c4ccccc4)cc2C3c2ccc(N(c3ccccc3)c3ccccc3)cc21"
assay_metric = "photoluminescence quantum yield"
measured_value = 0.02

[[record]]
compound = "CCCCN1C(=O)C(=C/C=C/C=C2N(CCCC)c3ccccc3N2CCCC)C(=O)N(CCCC)C1=S"
assay_metric = "photoluminescence quantum yield"
measured_value = 0.032

